# System: Escherichia coli TOP10
# experiment-notes: shrunken log2 fold change of peptide-encoding DNA abundance (4.5 h post-induction vs induction); higher = less antimicrobial activity (less host growth inhibition)
# experimental-context: time post-induction: 4.5 h; library: site-saturation at positions 5, 18, 19, 20
Classification field: enter y for shrunken log2 fold change values not below -0.2, n for values below it.

A selection of reference data follows.
- RRIRHRPPRLPRPRPRPGYIPRP: y
- RRIRMRPPRLPRPRPRPIGAPRP: y
- RRIRVRPPRLPRPRPRPFQIPRP: n
- RRIRCRPPRLPRPRPRPEHIPRP: n
- RRIRYRPPRLPRPRPRPHTVPRP: n

Hello, I need to know if RRIRPRPPRLPRPRPRPHCGPRP has measured shrunken log2 fold change not below -0.2. Thanks!
y

Hi, just wondering whether RRIRDRPPRLPRPRPRPLGYPRP shows shrunken log2 fold change of -0.2 or higher.
y

// inclusive: shrunken log2 fold change at least -0.2? input: RRIRVRPPRLPRPRPRPDTQPRP
y

Please check the record RRIRKRPPRLPRPRPRPLFQPRP and state if its shrunken log2 fold change is at or above -0.2.
y

Decide: is the reported value of shrunken log2 fold change for RRIRFRPPRLPRPRPRPDAHPRP equal to or greater than -0.2?
y

* * *

# Test system: Escherichia coli TOP10
# experiment-notes: shrunken log2 fold change of peptide-encoding DNA abundance (4.5 h post-induction vs induction); higher = less antimicrobial activity (less host growth inhibition)
# experimental-context: time post-induction: 4.5 h; library: site-saturation at positions 5, 18, 19, 20
For each record, write down the corresponding shrunken log2 fold change.
Answers are plain numbers.

• RRIRVRPPRLPRPRPRPDDMPRP = -0.239
• RRIRCRPPRLPRPRPRPLRKPRP = 0.734
• RRIRWRPPRLPRPRPRPMMFPRP = -0.117
• RRIRPRPPRLPRPRPRPPRTPRP = 0.609
• RRIRMRPPRLPRPRPRPVEPPRP = 0.207

Could I get shrunken log2 fold change for every one of these entries?
1. RRIRWRPPRLPRPRPRPGAKPRP
2. RRIRQRPPRLPRPRPRPPGDPRP

1. 0.21
2. 0.194

* * *

Provide the reported shrunken log2 fold change of each item.
# Test system: Escherichia coli TOP10
# experiment-notes: shrunken log2 fold change of peptide-encoding DNA abundance (4.5 h post-induction vs induction); higher = less antimicrobial activity (less host growth inhibition)
# experimental-context: time post-induction: 4.5 h; library: site-saturation at positions 5, 18, 19, 20
Numbers only.

Give shrunken log2 fold change for each listed item.
1. RRIRKRPPRLPRPRPRPIETPRP
2. RRIRYRPPRLPRPRPRPCNPPRP
3. RRIRRRPPRLPRPRPRPQITPRP

[0.00938, -0.217, 0.0752]

* * *

# System: Escherichia coli TOP10
# experiment-notes: shrunken log2 fold change of peptide-encoding DNA abundance (4.5 h post-induction vs induction); higher = less antimicrobial activity (less host growth inhibition)
# experimental-context: time post-induction: 4.5 h; library: site-saturation at positions 5, 18, 19, 20
assay-endpoint: shrunken log2 fold change
Numbers only.

Please look at the items below and tell me shrunken log2 fold change for each one, in order.
1. RRIRTRPPRLPRPRPRPEQCPRP
2. RRIRARPPRLPRPRPRPAGRPRP
3. RRIRPRPPRLPRPRPRPMCEPRP

-0.01
0.723
-0.0631

Below are some sequences; for each one, tell me its shrunken log2 fold change.
1. RRIRPRPPRLPRPRPRPDACPRP
2. RRIRFRPPRLPRPRPRPKYKPRP
3. RRIRRRPPRLPRPRPRPQKIPRP
4. RRIRNRPPRLPRPRPRPNESPRP
5. RRIRYRPPRLPRPRPRPYVPPRP
6. RRIRERPPRLPRPRPRPCVGPRP
7. RRIRCRPPRLPRPRPRPLAWPRP
8. RRIRTRPPRLPRPRPRPFILPRP

1: 0.183; 2: -0.63; 3: 0.0999; 4: -0.121; 5: -0.77; 6: -0.278; 7: -0.0538; 8: -0.276

Give shrunken log2 fold change for each listed item.
1. RRIRPRPPRLPRPRPRPRFEPRP
2. RRIRDRPPRLPRPRPRPVNNPRP
3. RRIRKRPPRLPRPRPRPQLPPRP
4. RRIRIRPPRLPRPRPRPLTFPRP
5. RRIRLRPPRLPRPRPRPYMNPRP
6. RRIRVRPPRLPRPRPRPVSPPRP
7. RRIRLRPPRLPRPRPRPINPPRP
8. RRIRHRPPRLPRPRPRPWHDPRP

1. 0.0793
2. 0.0566
3. -0.105
4. -0.173
5. -1.06
6. -0.146
7. 0.132
8. -0.00088

* * *

# System: Escherichia coli TOP10
# experiment-notes: shrunken log2 fold change of peptide-encoding DNA abundance (4.5 h post-induction vs induction); higher = less antimicrobial activity (less host growth inhibition)
# experimental-context: time post-induction: 4.5 h; library: site-saturation at positions 5, 18, 19, 20
Recorded shrunken log2 fold change determines the label; the label ranges are low (below -0.08), moderate (-0.08 to below 0.1), high (0.1 or more)

Reference set, count: 5
- RRIRHRPPRLPRPRPRPELIPRP: moderate
- RRIRKRPPRLPRPRPRPIEAPRP: moderate
- RRIRTRPPRLPRPRPRPMFVPRP: low
- RRIRWRPPRLPRPRPRPSLDPRP: moderate
- RRIRQRPPRLPRPRPRPRVDPRP: high

Which band does RRIRPRPPRLPRPRPRPACYPRP fall in?
low

Where would RRIRGRPPRLPRPRPRPWYMPRP land among the classes by reported shrunken log2 fold change?
moderate

Assign a bin to RRIRGRPPRLPRPRPRPRSQPRP
high

State the class of the sequence shown: RRIRIRPPRLPRPRPRPYLDPRP
low

Hi, small favor: classify RRIRSRPPRLPRPRPRPDDQPRP by its shrunken log2 fold change when you get a moment.
high

Class? Entry: RRIRFRPPRLPRPRPRPGQRPRP
high

Which of the defined bands does the recorded shrunken log2 fold change of RRIRERPPRLPRPRPRPFAQPRP sit within?
low

In plain terms, what class is RRIRQRPPRLPRPRPRPGWAPRP ?
high

* * *

# Test system: Escherichia coli TOP10
# experiment-notes: shrunken log2 fold change of peptide-encoding DNA abundance (4.5 h post-induction vs induction); higher = less antimicrobial activity (less host growth inhibition)
# experimental-context: time post-induction: 4.5 h; library: site-saturation at positions 5, 18, 19, 20
assay-endpoint: shrunken log2 fold change
One number for each entry.

Illustrative cases are given below, each with its answer.
* RRIRSRPPRLPRPRPRPIVMPRP | 0.0137
* RRIRERPPRLPRPRPRPMFVPRP | -0.285
* RRIRMRPPRLPRPRPRPQLRPRP | 0.357

Hi! Can you tell me shrunken log2 fold change for each of these sequences?
1. RRIRKRPPRLPRPRPRPMASPRP
2. RRIRWRPPRLPRPRPRPNCWPRP
3. RRIRQRPPRLPRPRPRPADYPRP

1: 0.55; 2: 0.533; 3: -0.155

Below are 2 sequences. Give each one its shrunken log2 fold change.
1. RRIRTRPPRLPRPRPRPEIQPRP
2. RRIRSRPPRLPRPRPRPDGQPRP

1. -0.00275
2. -0.00208

Provide each entry's shrunken log2 fold change from the list below.
1. RRIRTRPPRLPRPRPRPRGEPRP
2. RRIRRRPPRLPRPRPRPIPDPRP
3. RRIRSRPPRLPRPRPRPDSAPRP
4. RRIRLRPPRLPRPRPRPYIAPRP
5. RRIRYRPPRLPRPRPRPKGTPRP

1: 0.152; 2: 0.277; 3: 0.0412; 4: -0.261; 5: -0.0217

// batch mode: one shrunken log2 fold change value per listed entry
1. RRIRGRPPRLPRPRPRPSPGPRP
2. RRIRARPPRLPRPRPRPSNHPRP
3. RRIRWRPPRLPRPRPRPLDYPRP

[0.732, -0.089, -0.314]

Would you be so kind as to report shrunken log2 fold change for each listed record?
1. RRIRLRPPRLPRPRPRPPPRPRP
2. RRIRLRPPRLPRPRPRPKAMPRP

1: 1.66; 2: -0.023

* * *

# System: Escherichia coli TOP10;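 also: peptides expressed intracellularly from a pBAD plasmid library in pooled LB shake-flask culture, induced with 0.3% L-arabinose, DNA abundance read by NGS, three biological replicates, DESeq2 with apeglm shrinkage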
# experiment-notes: shrunken log2 fold change of peptide-encoding DNA abundance (4.5 h post-induction vs induction); higher = less antimicrobial activity (less host growth inhibition)
# experimental-context: time post-induction: 4.5 h; library: site-saturation at positions 5, 18, 19, 20
Please provide measured shrunken log2 fold change for the entries that follow.
Give bare numbers.

Worked set:
* RRIRSRPPRLPRPRPRPCHDPRP | -0.105
* RRIRWRPPRLPRPRPRPYRLPRP | 0.00724
* RRIRDRPPRLPRPRPRPPPEPRP | 0.48
* RRIRFRPPRLPRPRPRPWCYPRP | -0.751
* RRIRHRPPRLPRPRPRPASTPRP | -0.357
* RRIRWRPPRLPRPRPRPLHNPRP | -0.116
* RRIRPRPPRLPRPRPRPLTNPRP | -0.521
* RRIRFRPPRLPRPRPRPMNHPRP | -0.327
* RRIRMRPPRLPRPRPRPCFIPRP | -0.496
* RRIRYRPPRLPRPRPRPSQDPRP | -0.561

// each listed sequence needs a value for shrunken log2 fold change
1. RRIRHRPPRLPRPRPRPRINPRP
2. RRIRERPPRLPRPRPRPTDKPRP
3. RRIRKRPPRLPRPRPRPKYVPRP
4. RRIRARPPRLPRPRPRPQPYPRP
5. RRIRNRPPRLPRPRPRPIHAPRP
6. RRIRCRPPRLPRPRPRPNNCPRP
7. RRIRHRPPRLPRPRPRPQDGPRP

1. -0.0802
2. -0.234
3. 0.0381
4. -0.3
5. -0.0866
6. -0.636
7. -0.0342

I have 5 sequences here; please give me shrunken log2 fold change for each one.
1. RRIRMRPPRLPRPRPRPKEWPRP
2. RRIRGRPPRLPRPRPRPHQTPRP
3. RRIRDRPPRLPRPRPRPTPHPRP
4. RRIRTRPPRLPRPRPRPLKKPRP
5. RRIRFRPPRLPRPRPRPWSDPRP

1. 0.0859
2. 0.242
3. 0.175
4. -0.0468
5. -0.159

Dear reader, for each entry below, please note its shrunken log2 fold change.
1. RRIRRRPPRLPRPRPRPLTFPRP
2. RRIRWRPPRLPRPRPRPRAHPRP
3. RRIRRRPPRLPRPRPRPWWRPRP
4. RRIRSRPPRLPRPRPRPKRTPRP

[2.56, 0.167, 0.463, 0.312]
